- targetSystem: αIIbβ3 headpiece (Homo sapiens, UniProt P05106+P08514)
- Sequence (P08514 32-652 limits assumed): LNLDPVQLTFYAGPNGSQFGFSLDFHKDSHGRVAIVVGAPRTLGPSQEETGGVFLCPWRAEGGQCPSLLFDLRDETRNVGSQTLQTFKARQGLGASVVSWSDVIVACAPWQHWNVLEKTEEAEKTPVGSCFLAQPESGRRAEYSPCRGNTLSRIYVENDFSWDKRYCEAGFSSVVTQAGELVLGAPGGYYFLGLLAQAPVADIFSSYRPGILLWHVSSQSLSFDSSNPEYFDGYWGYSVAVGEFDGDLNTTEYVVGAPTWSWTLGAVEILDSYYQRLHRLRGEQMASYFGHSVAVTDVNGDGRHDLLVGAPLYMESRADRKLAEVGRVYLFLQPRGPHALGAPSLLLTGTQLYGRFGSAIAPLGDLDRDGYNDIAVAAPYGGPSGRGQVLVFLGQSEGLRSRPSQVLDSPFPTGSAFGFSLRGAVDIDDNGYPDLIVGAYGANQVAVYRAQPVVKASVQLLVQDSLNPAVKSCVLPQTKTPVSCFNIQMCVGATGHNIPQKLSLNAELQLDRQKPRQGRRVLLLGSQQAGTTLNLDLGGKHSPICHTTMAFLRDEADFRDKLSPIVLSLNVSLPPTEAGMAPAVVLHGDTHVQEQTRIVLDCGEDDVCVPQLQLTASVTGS
- Sequence (P05106 27-498 limits assumed): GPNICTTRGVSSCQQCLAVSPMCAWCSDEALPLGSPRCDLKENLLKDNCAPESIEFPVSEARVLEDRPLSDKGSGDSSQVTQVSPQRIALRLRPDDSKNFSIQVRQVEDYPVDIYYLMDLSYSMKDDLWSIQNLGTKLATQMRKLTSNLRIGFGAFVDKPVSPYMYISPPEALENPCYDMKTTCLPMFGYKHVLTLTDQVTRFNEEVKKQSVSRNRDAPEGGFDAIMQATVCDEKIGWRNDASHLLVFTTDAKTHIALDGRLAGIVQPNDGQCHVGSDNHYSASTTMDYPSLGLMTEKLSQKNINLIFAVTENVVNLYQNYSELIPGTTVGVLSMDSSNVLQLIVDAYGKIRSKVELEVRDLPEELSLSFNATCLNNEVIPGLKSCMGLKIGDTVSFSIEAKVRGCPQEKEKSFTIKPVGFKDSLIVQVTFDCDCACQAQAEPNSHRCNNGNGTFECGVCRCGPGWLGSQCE
- testMethodNotes: Fluorescence anisotropy binding assay (saturation and competition with FITC-dodecapeptide)
- Set-up: increasing the concentration of purified recombinant αIIbβ3 headpiece to saturation; C-terminal α-helical coiled-coil (C); made in house
- conditionContext: read-out: KD, competitive binding
No end group written: not given here.
propertyName: pKd
# pKd: negative log10 of molar concentration; output just the value

Item under review: HHLGGAKQAGDV [fibrinogen γC dodecapeptide, reference compound] . Reported pKd?
5.90

###

Recorded measurements of Kd, one per entry
- targetSystem: αIIbβ3 headpiece (Homo sapiens, UniProt P05106+P08514)
- testMethodNotes: Fluorescence anisotropy binding assay (saturation and competition with FITC-dodecapeptide)
- conditionContext: read-out: KD, competitive binding
Non-standard residues stand in square brackets, D forms with d. Residues, ends and D or L forms follow the SMILES beside them.
Value expressed in µM; do not type the unit.

Previously resolved entries follow.
COC(=O)[C@@H](NC(=O)[C@H](CC(=O)O)NC(=O)CNC(=O)[C@H](C)N)C(C)C [AGDV-OCH3] (H-AGDV-OMe)    67.6
CC(C)[C@H](NC(=O)[C@H](CC(=O)O)NC(=O)CNC(=O)[C@H](C)N)C(N)=O [AGDV-NH2] (H-AGDV-NH2)    50.9
CC(C)[C@H](NC(=O)[C@H](CC(=O)O)NC(=O)CNC(=O)[C@H](C)N)C(=O)O [AGDV] (H-AGDV-OH)    9.03
CC(C)[C@@H](NC(=O)[C@H](CC(=O)O)NC(=O)CNC(=O)[C@H](C)N)C(=O)O [AGD(v)] (H-AGD[dV]-OH)    217

Please find the next compound below.
Return Kd measured with αIIbβ3 headpiece (Homo sapiens, UniProt P05106+P08514) given this compound: CC(=O)N[C@@H](C)C(=O)NCC(=O)N[C@@H](CC(=O)O)C(=O)N[C@H](C(=O)O)C(C)C [Ac-AGDV, N-acetylated AGDV] (Ac-AGDV-OH)
1
